ASSAY OVERVIEW: Tumor uptake and tissue distribution in mice bearing SJSA-1 xenografts
Type: in vivo, athymic mice
CONDITION: athymic, mouse, skin, iv, 166.5 kBq, total radioactivity
MEASUREMENT KIND: tissue uptake at 0.5 h (%ID/g)
Give bare numbers, in %ID/g.

Quick one: tissue uptake at 0.5 h of CC(=O)N[C@@H](CCCCNC(=O)c1cccc(I)c1)C(=O)NCCCCCC(=O)N[C@H](C(=O)N[C@@H](CO)C(=O)N[C@@H](Cc1ccccc1)C(=O)N[C@]1(C)CCCCCCC=CCCC[C@@](C)(C(=O)N[C@@H](CCC(=O)O)C(=O)N[C@@H](CC(N)=O)C(=O)N[C@@H](Cc2ccccc2)C(N)=O)NC(=O)[C@H](CC(C)C)NC(=O)[C@H](CC(C)C)NC(=O)[C@H](C)NC(=O)[C@H](Cc2c[nH]c3ccccc23)NC(=O)[C@H](Cc2ccc(O)cc2)NC(=O)[C@H](CCC(=O)O)NC1=O)[C@@H](C)O [[^125I]SIB-VIP116] ? 0.57

----------
ASSAY OVERVIEW: Tumor uptake and tissue distribution in mice bearing SJSA-1 xenografts
Format: in vivo, athymic mice
CONDITION: athymic, mouse, tumor, iv, 166.5 kBq, total radioactivity
MEASUREMENT KIND: tissue uptake at 6 h (%ID/g)
Give bare numbers, in %ID/g.

Quick one: tissue uptake at 6 h of CC(=O)N[C@@H](CCCCNC(=O)c1cccc(I)c1)C(=O)NCCCCCC(=O)N[C@H](C(=O)N[C@@H](CO)C(=O)N[C@@H](Cc1ccccc1)C(=O)N[C@]1(C)CCCCCCC=CCCC[C@@](C)(C(=O)N[C@@H](CCC(=O)O)C(=O)N[C@@H](CC(N)=O)C(=O)N[C@@H](Cc2ccccc2)C(N)=O)NC(=O)[C@H](CC(C)C)NC(=O)[C@H](CC(C)C)NC(=O)[C@H](C)NC(=O)[C@H](Cc2c[nH]c3ccccc23)NC(=O)[C@H](Cc2ccc(O)cc2)NC(=O)[C@H](CCC(=O)O)NC1=O)[C@@H](C)O [[^125I]SIB-VIP116] ? 2.11

----------
ASSAY OVERVIEW: Tumor uptake and tissue distribution in mice bearing SJSA-1 xenografts
Assay type: in vivo, athymic mice
CONDITION: athymic, mouse, small intestine, iv, 166.5 kBq, total radioactivity
MEASUREMENT KIND: tissue uptake at 24 h (%ID/g)
Give bare numbers, in %ID/g.

Quick one: tissue uptake at 24 h of CC(=O)N[C@@H](CCCCNC(=O)c1cccc(I)c1)C(=O)NCCCCCC(=O)N[C@H](C(=O)N[C@@H](CO)C(=O)N[C@@H](Cc1ccccc1)C(=O)N[C@]1(C)CCCCCCC=CCCC[C@@](C)(C(=O)N[C@@H](CCC(=O)O)C(=O)N[C@@H](CC(N)=O)C(=O)N[C@@H](Cc2ccccc2)C(N)=O)NC(=O)[C@H](CC(C)C)NC(=O)[C@H](CC(C)C)NC(=O)[C@H](C)NC(=O)[C@H](Cc2c[nH]c3ccccc23)NC(=O)[C@H](Cc2ccc(O)cc2)NC(=O)[C@H](CCC(=O)O)NC1=O)[C@@H](C)O [[^125I]SIB-VIP116] ? 0.86

----------
ASSAY OVERVIEW: Tumor uptake and tissue distribution in mice bearing SJSA-1 xenografts
Type: in vivo, athymic mice
CONDITION: athymic, mouse, stomach, iv, 166.5 kBq, total radioactivity
MEASUREMENT KIND: tissue uptake at 2 h (%ID/g)
One number for each entry, in %ID/g.

Quick one: tissue uptake at 2 h of CC(=O)N[C@@H](CCCCNC(=O)c1cccc(I)c1)C(=O)NCCCCCC(=O)N[C@H](C(=O)N[C@@H](CO)C(=O)N[C@@H](Cc1ccccc1)C(=O)N[C@]1(C)CCCCCCC=CCCC[C@@](C)(C(=O)N[C@@H](CCC(=O)O)C(=O)N[C@@H](CC(N)=O)C(=O)N[C@@H](Cc2ccccc2)C(N)=O)NC(=O)[C@H](CC(C)C)NC(=O)[C@H](CC(C)C)NC(=O)[C@H](C)NC(=O)[C@H](Cc2c[nH]c3ccccc23)NC(=O)[C@H](Cc2ccc(O)cc2)NC(=O)[C@H](CCC(=O)O)NC1=O)[C@@H](C)O [[^125I]SIB-VIP116] ? 0.53

----------
ASSAY OVERVIEW: Tumor uptake and tissue distribution in mice bearing SJSA-1 xenografts
Assay type: in vivo, athymic mice
CONDITION: athymic, mouse, bladder, iv, 166.5 kBq, total radioactivity
MEASUREMENT KIND: tissue uptake at 2 h
Kindly write the number and append the unit.

Quick one: tissue uptake at 2 h of CC(=O)N[C@@H](CCCCNC(=O)c1cccc(I)c1)C(=O)NCCCCCC(=O)N[C@H](C(=O)N[C@@H](CO)C(=O)N[C@@H](Cc1ccccc1)C(=O)N[C@]1(C)CCCCCCC=CCCC[C@@](C)(C(=O)N[C@@H](CCC(=O)O)C(=O)N[C@@H](CC(N)=O)C(=O)N[C@@H](Cc2ccccc2)C(N)=O)NC(=O)[C@H](CC(C)C)NC(=O)[C@H](CC(C)C)NC(=O)[C@H](C)NC(=O)[C@H](Cc2c[nH]c3ccccc23)NC(=O)[C@H](Cc2ccc(O)cc2)NC(=O)[C@H](CCC(=O)O)NC1=O)[C@@H](C)O [[^125I]SIB-VIP116] ? 0.58 %ID/g

----------
ASSAY OVERVIEW: Tumor uptake and tissue distribution in mice bearing SJSA-1 xenografts
Format: in vivo, athymic mice
CONDITION: athymic, mouse, blood, iv, 166.5 kBq, total radioactivity
MEASUREMENT KIND: tissue uptake at 0.5 h (%ID/g)
Give bare numbers, in %ID/g.

Quick one: tissue uptake at 0.5 h of CC(=O)N[C@@H](CCCCNC(=O)c1cccc(I)c1)C(=O)NCCCCCC(=O)N[C@H](C(=O)N[C@@H](CO)C(=O)N[C@@H](Cc1ccccc1)C(=O)N[C@]1(C)CCCCCCC=CCCC[C@@](C)(C(=O)N[C@@H](CCC(=O)O)C(=O)N[C@@H](CC(N)=O)C(=O)N[C@@H](Cc2ccccc2)C(N)=O)NC(=O)[C@H](CC(C)C)NC(=O)[C@H](CC(C)C)NC(=O)[C@H](C)NC(=O)[C@H](Cc2c[nH]c3ccccc23)NC(=O)[C@H](Cc2ccc(O)cc2)NC(=O)[C@H](CCC(=O)O)NC1=O)[C@@H](C)O [[*I]SIB-VIP116] ? 8.33

----------
ASSAY OVERVIEW: Tumor uptake and tissue distribution in mice bearing SJSA-1 xenografts
Assay type: in vivo, athymic mice
CONDITION: athymic, mouse, tumor, iv, 166.5 kBq, total radioactivity
MEASUREMENT KIND: tissue uptake at 0.5 h (%ID/g)
Give bare numbers, in %ID/g.

Quick one: tissue uptake at 0.5 h of CC(=O)N[C@@H](CCCCNC(=O)c1cccc(I)c1)C(=O)NCCCCCC(=O)N[C@H](C(=O)N[C@@H](CO)C(=O)N[C@@H](Cc1ccccc1)C(=O)N[C@]1(C)CCCCCCC=CCCC[C@@](C)(C(=O)N[C@@H](CCC(=O)O)C(=O)N[C@@H](CC(N)=O)C(=O)N[C@@H](Cc2ccccc2)C(N)=O)NC(=O)[C@H](CC(C)C)NC(=O)[C@H](CC(C)C)NC(=O)[C@H](C)NC(=O)[C@H](Cc2c[nH]c3ccccc23)NC(=O)[C@H](Cc2ccc(O)cc2)NC(=O)[C@H](CCC(=O)O)NC1=O)[C@@H](C)O [[^125I]SIB-VIP116] ? 1.8

----------
ASSAY OVERVIEW: Tumor uptake and tissue distribution in mice bearing SJSA-1 xenografts
Assay type: in vivo, athymic mice
CONDITION: athymic, mouse, stomach, iv, 166.5 kBq, total radioactivity
MEASUREMENT KIND: tissue uptake at 6 h (%ID/g)
Give bare numbers, in %ID/g.

Quick one: tissue uptake at 6 h of CC(=O)N[C@@H](CCCCNC(=O)c1cccc(I)c1)C(=O)NCCCCCC(=O)N[C@H](C(=O)N[C@@H](CO)C(=O)N[C@@H](Cc1ccccc1)C(=O)N[C@]1(C)CCCCCCC=CCCC[C@@](C)(C(=O)N[C@@H](CCC(=O)O)C(=O)N[C@@H](CC(N)=O)C(=O)N[C@@H](Cc2ccccc2)C(N)=O)NC(=O)[C@H](CC(C)C)NC(=O)[C@H](CC(C)C)NC(=O)[C@H](C)NC(=O)[C@H](Cc2c[nH]c3ccccc23)NC(=O)[C@H](Cc2ccc(O)cc2)NC(=O)[C@H](CCC(=O)O)NC1=O)[C@@H](C)O [[^125I]SIB-VIP116] ? 1.9

----------
ASSAY OVERVIEW: Tumor uptake and tissue distribution in mice bearing SJSA-1 xenografts
Format: in vivo, athymic mice
CONDITION: athymic, mouse, skin, iv, 166.5 kBq, total radioactivity
MEASUREMENT KIND: tissue uptake at 24 h
Kindly write the number and append the unit.

Quick one: tissue uptake at 24 h of CC(=O)N[C@@H](CCCCNC(=O)c1cccc(I)c1)C(=O)NCCCCCC(=O)N[C@H](C(=O)N[C@@H](CO)C(=O)N[C@@H](Cc1ccccc1)C(=O)N[C@]1(C)CCCCCCC=CCCC[C@@](C)(C(=O)N[C@@H](CCC(=O)O)C(=O)N[C@@H](CC(N)=O)C(=O)N[C@@H](Cc2ccccc2)C(N)=O)NC(=O)[C@H](CC(C)C)NC(=O)[C@H](CC(C)C)NC(=O)[C@H](C)NC(=O)[C@H](Cc2c[nH]c3ccccc23)NC(=O)[C@H](Cc2ccc(O)cc2)NC(=O)[C@H](CCC(=O)O)NC1=O)[C@@H](C)O [[^125I]SIB-VIP116] ? 0.52 %ID/g

Data provenance is paper PMC9940446.
